# assayTarget: HLA-A*0201 (human)
# methodNotes: competition binding, purified soluble HLA, 125I-labelled probe peptide
# conditionParameters: remark: other sources report otherwise
experimentalReadout: pIC50
Keep in mind that pIC50 stands for -log10 of concentration in molar terms.

IMACMSADL (modifications not checked) […] has a reported pIC50 of 7.18

Just for reference, patent US20060093617A1 is where these values come from.
